test: Trypsin treatment, intact peptide by HPLC; type: in vitro ADME; conditions: isolated enzyme trypsin; trypsin, 1 h incubation, HPLC chromatogram analysis; read-out: intact peptide after trypsin treatment
Residues, ends and D or L forms follow the SMILES beside them.
quantity: remaining at 1 h (%)
Answers are plain numbers, in %.

Request: What remaining at 1 h value was documented for this molecule, N=C(N)NCCC[C@H](NC(=O)[C@H](CCCCN)NC(=O)[C@H](CCCCN)NC(=O)[C@H](CCCNC(=N)N)NC(=O)[C@H](CCCNC(=N)N)NC(=O)[C@H](CCC(N)=O)NC(=O)[C@H](CCCNC(=N)N)NC(=O)[C@H](CCCNC(=N)N)NC(=O)[C@H](CCCNC(=N)N)NC(=O)[C@@H](N)CCCCN)C(=O)NCC(=O)N[C@@H](Cc1ccc(O)cc1)C(=O)N[C@@H](CCC(=O)O)C(N)=O [linear peptide] (H-KRRRQRRKKRGYE-NH2; N-terminus assumed) ?
Response: 36

====

test system: trypsin; construct: purchased Sigma Aldrich / VWR Life Sciences; assay: Trypsin treatment, intact peptide by HPLC; assay type: in vitro ADME; details: isolated enzyme trypsin
Positions of bridges follow the written chain, without caps; N, C: chain ends. Residues, ends and D or L forms follow the SMILES beside them.
quantity: remaining at 1 h
Could you write the number and then its unit?

Request: What remaining at 1 h value was documented for this molecule, N=C(N)NCCC[C@@H]1NC(=O)[C@H](CCCCN)NC(=O)[C@H](CCCCN)NC(=O)[C@H](CCCNC(=N)N)NC(=O)[C@H](CCCNC(=N)N)NC(=O)[C@H](CCC(N)=O)NC(=O)[C@H](CCCNC(=N)N)NC(=O)[C@H](CCCNC(=N)N)NC(=O)[C@H](CCCNC(=N)N)NC(=O)[C@@H](N)CCCCNC(=O)CC[C@@H](C(N)=O)NC(=O)[C@H](Cc2ccc(O)cc2)NC(=O)CNC1=O [cTAT] (H-KRRRQRRKKRGYE-NH2; lactam 1-13) ?
Response: 49%

====

Tested on: trypsin
Construct: purchased Sigma Aldrich / VWR Life Sciences
Assay: Trypsin treatment, intact peptide by HPLC
Format: in vitro ADME
Conditions: isolated enzyme trypsin
Description: Compared with the linear peptides, cyclic analogs are well documented for enhanced physiological stability and resistance to enzymatic degradation.^[ [20], [21], [22] ^]
Positions of bridges follow the written chain, without caps; N, C: chain ends. Residues, ends and D or L forms follow the SMILES beside them.
quantity: remaining at 20 h (%)
One number for each entry, in %.

Request: What remaining at 20 h value was documented for this molecule, N=C(N)NCCC[C@@H]1NC(=O)[C@H](CCCCN)NC(=O)[C@H](CCCCN)NC(=O)[C@H](CCCNC(=N)N)NC(=O)[C@H](CCCNC(=N)N)NC(=O)[C@H](CCC(N)=O)NC(=O)[C@H](CCCNC(=N)N)NC(=O)[C@H](CCCNC(=N)N)NC(=O)[C@H](CCCNC(=N)N)NC(=O)[C@@H](N)CCCCNC(=O)CC[C@@H](C(N)=O)NC(=O)[C@H](Cc2ccc(O)cc2)NC(=O)CNC1=O [cTAT] (H-KRRRQRRKKRGYE-NH2; lactam 1-13) ?
Response: 27
